# assay.protocol: Volume of distribution at steady state in cynomolgous monkey at 1 mg/kg, iv
# Assay type: ADME, organism-based, Macaca fascicularis
# experimental.context: cynomolgus monkey, in vivo, read-out: Vdss
parameter: Vd (L/kg)
Could you give me the number in L/kg? Just the number is fine.

// lookup Vd for COC[C@H]1CN(C(=O)[C@]2(F)CN(C3CCCC3)C[C@H]2c2ccc(OC)cc2)C[C@@H]1c1ccc(C(F)(F)F)cc1N1CCC(C(=O)O)CC1.O=P(O)(O)O [DERSIMELAGON PHOSPHATE]
1.93

* * *

# assay.protocol: Cmax in cynomolgous monkey at 3 mg/kg, po
# Format: ADME, organism-based, Macaca fascicularis
# experimental.context: cynomolgus monkey, in vivo
parameter: Cmax (ng/mL)
Could you give me the number in ng/mL? Just the number is fine.

// lookup Cmax for COC[C@H]1CN(C(=O)[C@]2(F)CN(C3CCCC3)C[C@H]2c2ccc(OC)cc2)C[C@@H]1c1ccc(C(F)(F)F)cc1N1CCC(C(=O)O)CC1.O=P(O)(O)O [DERSIMELAGON PHOSPHATE]
167
